# ASSAY_METHOD_TEXT: Testing the stability of a TCO compound under chemical conditions (HPLC-MS/PDA, GC-MS)
# Type: physicochemical
# CONDITION: Z) in 25% acetonitrile in water at 20° C.; for 1 h

{"COMPOUND": "O=C(Cc1ccccc1)C(C(=O)OC1/C=C/CCCCC1)c1ccccc1 (centres unmarked)", "Stability of TCO": "stable stable"}
{"COMPOUND": "O=C(OC1/C=C/CCCCC1)c1ccc([N+](=O)[O-])cc1 (centres unmarked) [drawing 118]", "Stability of TCO": "stable"}
{"COMPOUND": "O=C(OC1/C=C/CCCCC1)c1ccc([N+](=O)[O-])cc1 (centres unmarked) [drawing 116]", "Stability of TCO": "stable"}
{"COMPOUND": "C1=C/C(Oc2ccccc2)CCCCC/1 (centres unmarked) [drawing 122]", "Stability of TCO": "stable"}
{"COMPOUND": "O=C(Oc1ccc([N+](=O)[O-])cc1)OC1/C=C/CCCCC1 (centres unmarked)", "Stability of TCO": "stable"}
{"COMPOUND": "C1=C/C(OCc2ccccc2)CCCCC/1 (centres unmarked)", "Stability of TCO": "stable stable"}

###

The entries below are paired with their reported Deprotection (%).
# ASSAY_METHOD_TEXT: Testing the feasibility of the deprotection of TCO compounds upon reaction with tetrazine
# CONDITION: tetrazine 8; G) in acetonitrile with 5 equivalents of DCC per TCO at 20° C.; for 1 h

{"MOLECULE": "C1=C/C(Oc2ccccc2)CCCCC/1 (stereo not drawn) [drawing 120]", "Deprotection (%)": "80%"}
{"MOLECULE": "Cc1cc(C)cc(NC(=O)OC2/C=C/CCCCC2)c1 (stereo not drawn) [drawing 126]", "Deprotection (%)": "61%"}
{"MOLECULE": "Cc1cc(C)cc(NC(=O)OC2/C=C/CCCCC2)c1 (stereo not drawn) [drawing 128]", "Deprotection (%)": "91%"}
{"MOLECULE": "O=C(OC1/C=C/CCCCC1)c1ccc([N+](=O)[O-])cc1 (stereo not drawn) [drawing 116]", "Deprotection (%)": "89%"}
{"MOLECULE": "O=C(Oc1ccc([N+](=O)[O-])cc1)OC1/C=C/CCCCC1 (stereo not drawn)", "Deprotection (%)": "72%"}
{"MOLECULE": "O=C(NCc1cccc2ccccc12)OC1/C=C/CCCCC1 (stereo not drawn)", "Deprotection (%)": "74%"}
